Collected set of IC50 measured with Angiopoietin-1 receptor (Homo sapiens, UniProt Q02763) across studies.

The examples below pair each entry with its known result.
CC(=O)Nc1cc(COc2nsnc2N2CCN(C(=O)Nc3cc(C(F)(F)F)cc(C(F)(F)F)c3)CC2)ccn1 :: < 0.05 µM
COc1ccc(-c2nc(-c3ccncc3)nn2CCN(C(=O)Cc2cccc3ccccc23)C2CCCCC2)cc1Cl :: < 0.05 µM
OCc1ccc(Nc2ncnc(Nc3cc(-c4ccco4)n[nH]3)n2)cc1 :: 1.14 to 6.87 µM
COc1ccc(-c2nc(-c3ccncc3)nn2CCN(C(=O)Nc2cc(C(F)(F)F)cc(C(F)(F)F)c2)C2CCCC2)cc1Cl :: ≥ 10 µM
COc1cc(Nc2ncnc(Nc3cccc4ncccc34)n2)cc(OC)c1OC :: 5.93 to 8.65 µM
COc1cc(Nc2ncnc(-n3c(Nc4ccc5[nH]ccc5c4)nc4ccccc43)n2)cc(OC)c1OC :: 0.787 to 4.72 µM
O[C@@H]1Cc2ccccc2[C@@H]1Nc1ccnc(-c2ccncc2)n1 :: 0.05 to 1 µM
COc1cc(Nc2ncnc(N)n2)cc(OC)c1OC :: > 16.2 µM

Query: Name the recorded IC50 for O[C@@H]1CCCC[C@H]1Nc1nc(-c2ccccc2)nc2ccccc12 .
Result: ≥ 10 µM

Query: What value of IC50 has been reported for the following compound? CC(=O)Nc1ccc(C(=O)Nc2sc(Nc3ccccc3)nc2C(N)=O)cc1
Result: > 0.3 µM

Query: Which IC50 value belongs to O=C(c1cc(=O)c2cc(O)ccc2o1)c1ncc(Cl)nc1Cl ?
Result: > 10 µM

Query: Param item = COc1ccc(-c2nc(-c3ccncc3)nn2CCN(C(=O)Nc2ccc(C(C)C)cc2)C2CCCC2)cc1Cl ; retrieve measured IC50.
Result: ≥ 10 µM

Query: What value of measured IC50 is listed for COc1cc2ccn(-c3ncnc(Nc4cc(OC)c(OC)c(OC)c4)n3)c2cc1OC ?
Result: > 10.3 µM

Query: Name the reported IC50 value associated with the compound CNC(=O)c1cc(Oc2ccc(NC(=O)Nc3cc(C(C)(C)C)nn3-c3ccc(F)cc3)cc2)ccn1
Result: 0.0065 µM

Query: Any idea what IC50 was measured for CC(C)c1ccc(NC(=O)N2CCN(c3nsnc3OCc3ccncc3)CC2C)cc1 (centres unmarked) ?
Result: 1 to 10 µM

Query: Item c1cnn(-c2nc(NCc3ccc4c(c3)OCO4)c3c4c(sc3n2)CCCC4)c1 has what recorded IC50?
Result: 0.15 µM

Query: Requested read-out: IC50. Entry: COc1cc(Nc2ncnc(-n3c(OCc4ccccn4)nc4ccccc43)n2)cc(OC)c1OC
Result: > 9.27 µM

----------
pIC50: −log10 of the molar value.
Endpoint summary: pIC50, system: UniProtKB Q02763, multiple sources combined.

COc1cc(Nc2ncnc(Nc3ccc(NC(=O)O[C@@H]4CCOC4)cc3)n2)cc(OC)c1OC :: < 5.03
Nc1nccc(COc2cccnc2N2CCN(C(=O)Nc3ccccc3F)CC2)n1 :: 5.00 to 6.00
O=C(Cc1cccc2ccccc12)N(CCn1nc(-c2cccc(Cl)c2)nc1-c1ccncc1)C1CCCC1 :: 5.00 to 6.00
COCCOc1ccc(Nc2ncnc(Nc3cc(-c4ccco4)n[nH]3)n2)cc1OCCOC :: 5.13 to 5.29
COc1cc(Nc2ncnc(Nc3cc(-c4ccc(Cl)cc4)n[nH]3)n2)cc(OC)c1OC :: 5.00 to 5.11

Query: # query: pIC50 | item CC1CN(c2nccnc2OCc2ccncc2)CC(C)N1C(=O)Nc1cccc(C(F)(F)F)c1 (stereo not shown) | system: UniProtKB Q02763
Result: 6.00 to 7.30

Query: Find pIC50 (UniProtKB Q02763) for the entry COc1cc(Nc2ncnc(Nc3nccs3)n2)cc(OC)c1OC
Result: < 4.90

----------
// note: pIC50 values for Angiopoietin-1 receptor (Homo sapiens, UniProt Q02763) were reported in different studies
pIC50: −log10 of the molar value.

Answered examples (2):
COc1cc(Nc2ncnc(Nc3ncnc4[nH]cnc34)n2)cc(OC)c1OC :: < 4.94
COc1cc(Nc2ncnc(Nc3cc(F)ccc3F)n2)cc(OC)c1OC :: < 4.94

Query: Name the recorded pIC50 for COc1ccc(Nc2ncnc(Nc3ccc(Oc4ccccc4)cc3)n2)cc1OC .
Result: < 4.97

Query: What value of pIC50 has been reported for the following compound? O=C(CN1CCCC1)Nc1cc(COc2nsnc2N2CCN(C(=O)Nc3cc(C(F)(F)F)cc(C(F)(F)F)c3)CC2)ccn1
Result: > 7.30

Query: Request the reported pIC50 associated with CC1CN(c2nc3ccccc3nc2OCc2ccncc2)CCN1C(=O)Nc1cc(C(F)(F)F)cc(C(F)(F)F)c1 (centres unmarked)
Result: 6.00 to 7.30

Query: Give its pIC50 value. Item: COc1cc(Nc2ncnc(Nc3nc4ccccc4n3C)n2)cc(OC)c1OC
Result: < 4.96

Query: Any idea what its pIC50 is? The compound is COc1ccc(-c2nc(-c3ccncc3)nn2CCN(C(=O)Nc2ccc(C#N)cc2)C2CCCC2)cc1Cl
Result: ≤ 5.00

Query: Which pIC50 is reported for this compound? O=C(COc1ccc(-c2cnc3nc2NCCCNS(=O)(=O)c2cccc(c2)N3)cc1)c1ccccc1
Result: ≥ 6.00

----------
Below are IC50 values for Angiopoietin-1 receptor (Homo sapiens) collected from several publications.

Nc1nccc(COc2cccnc2N2CCN(C(=O)Nc3cccc(C(F)(F)F)c3)CC2)n1 :: < 50 nM

Query: Given the entry COC(=O)c1cccc(Nc2ncnc(Nc3cc(-c4ccco4)n[nH]3)n2)c1 , what IC50 was observed with Angiopoietin-1 receptor (Homo sapiens)?
Result: > 11900 nM

Query: Item: COc1cc(Nc2ncnc(Nc3ccc4[nH]ccc4c3)n2)cc(OC)c1OC Test system: Angiopoietin-1 receptor (Homo sapiens) Read-out: IC50 Value: ?
Result: > 11500 nM

Query: Query for Angiopoietin-1 receptor (Homo sapiens): what IC50 does the record show for NCC1CC(n2cc(-c3cccc(NCc4ccccc4)c3)c3c(N)ncnc32)C1 (centres unmarked) ?
Result: 1500 nM

Query: Request: IC50, test system Angiopoietin-1 receptor (Homo sapiens), entry c1ccc2c(N[C@H]3CCCNC3)nc(-c3ccncc3)nc2c1
Result: ≥ 10000 nM

Query: Given the entry Cc1ccc2c(N[C@H]3c4ccccc4C[C@H]3O)nc(-c3ccncc3)nc2c1 , what IC50 was observed with Angiopoietin-1 receptor (Homo sapiens)?
Result: < 50 nM

Query: State its IC50 on Angiopoietin-1 receptor (Homo sapiens): O=C(Cc1cccc2ccccc12)N(CCn1nc(-c2ccncc2)nc1-c1ccc(Br)cc1)C1CCCC1
Result: < 50 nM

Query: GET /values?readout=IC50&system=Angiopoietin-1 receptor (Homo sapiens)&item= CCc1cccc(NC(=O)N2CCN(c3nsnc3OCc3ccnc(NC(=O)OC)c3)CC2)c1
Result: < 50 nM

----------
pIC50: −log10 of the molar value.
Values of pIC50 for Angiopoietin-1 receptor (Homo sapiens, UniProt Q02763), collected from a number of published sources:

Some solved entries appear below for comparison.
O=C(Cc1cccc2ccccc12)N(CCn1nc(-c2ccncc2)nc1-c1ccco1)C1CCCC1 :: > 7.30
Nc1ncnc2c1ncn2-c1ccc(NC(=O)Nc2cc(C(F)(F)F)ccn2)cc1 :: 7.00
Cc1nc2c(-c3cccc([N+]4([O-])CC[N+](C)([O-])CC4)c3)cnn2c(N)c1-c1ccc(F)cc1 (centres unmarked) :: < 5.00
Cc1nc2c(-c3ccc(N4CCN(C)CC4)cc3)cnn2c(N)c1-c1ccc(F)c(Cl)c1 :: < 5.00

Query: Please provide the recorded pIC50 for CCc1cc(Br)cc(NC(=O)N2CCN(c3ncccc3OCc3ccnc(N)n3)CC2)c1 , tested on Angiopoietin-1 receptor (Homo sapiens, UniProt Q02763).
Result: > 7.30

Query: GET /values?readout=pIC50&system=Angiopoietin-1 receptor (Homo sapiens, UniProt Q02763)&item= COc1ccc(-c2nc(-c3ccncc3)n(CCCCN(C(=O)Cc3cccc4ccccc34)C3CCCC3)n2)cc1Cl
Result: ≤ 5.00

Query: Report pIC50 for COc1cc(Nc2ncnc(Nc3ccc(Cl)c4ccccc34)n2)cc(OC)c1OC tested on Angiopoietin-1 receptor (Homo sapiens, UniProt Q02763).
Result: < 4.99

Query: Given the entry O=c1[nH]c2ccccc2n1-c1ncnc(Nc2ccc(OC(F)(F)F)cc2)n1 , what pIC50 was observed with Angiopoietin-1 receptor (Homo sapiens, UniProt Q02763)?
Result: 5.05 to 5.21

----------
Several publications report pIC50 on Angiopoietin-1 receptor (Homo sapiens, UniProt Q02763); those values are gathered here.
pIC50: −log10 of the molar value.

Reference set (2 entries):
COc1cc(Nc2ncnc(Nc3ccc(C(C)=O)cc3)n2)cc(OC)c1OC :: 4.94 to 5.05
CN(C)CCNc1nccc(COc2nsnc2N2CCN(C(=O)Nc3cc(C(F)(F)F)cc(C(F)(F)F)c3)CC2)n1 :: 6.00 to 7.30

Query: Item CNC(=O)c1cc(Oc2ccc(NC(=O)Nc3cc(C(C)(C)C)nn3-c3cccc(C(F)(F)F)c3)cc2)ccn1 with Angiopoietin-1 receptor (Homo sapiens, UniProt Q02763) - pIC50?
Result: 8.49

Query: What reported pIC50 corresponds to Oc1cccc(Nc2ncnc(-c3ccccc3)n2)c1 on Angiopoietin-1 receptor (Homo sapiens, UniProt Q02763)?
Result: < 4.77

Query: Which pIC50 is reported with Angiopoietin-1 receptor (Homo sapiens, UniProt Q02763) for this entry: COc1cc(Nc2ncnc(Nc3ccc(S(=O)(=O)NC(C)=O)cc3)n2)cc(OC)c1OC ?
Result: < 5.02

Query: GET /values?readout=pIC50&system=Angiopoietin-1 receptor (Homo sapiens, UniProt Q02763)&item= Nc1nccc(COc2nsnc2N2CCN(C(=O)Nc3cc(F)cc(C(F)(F)F)c3)CC2)n1
Result: > 7.30

Query: Short answer please: pIC50, Angiopoietin-1 receptor (Homo sapiens, UniProt Q02763), entry CNc1nccc(-c2nc(C)n(CCN(C(=O)Cc3cccc4ccccc34)C3CCCC3)n2)n1
Result: ≤ 5.00

Query: Query for Angiopoietin-1 receptor (Homo sapiens, UniProt Q02763): what pIC50 does the record show for COc1cc(Nc2ncnc(-n3cc(CC(N)=O)c4ccccc43)n2)cc(OC)c1OC ?
Result: < 4.98
